target: CDK4/Cyclin D1 (Homo sapiens (Human), UniProt P11802); test: CDK4/Cyclin D1 kinase TR-FRET inhibition assay; details: 1 mM ATP, Rb (Ser780)-biotin substrate, read-out: CDK4D1 IC50
Sequence (P11802 whole entry): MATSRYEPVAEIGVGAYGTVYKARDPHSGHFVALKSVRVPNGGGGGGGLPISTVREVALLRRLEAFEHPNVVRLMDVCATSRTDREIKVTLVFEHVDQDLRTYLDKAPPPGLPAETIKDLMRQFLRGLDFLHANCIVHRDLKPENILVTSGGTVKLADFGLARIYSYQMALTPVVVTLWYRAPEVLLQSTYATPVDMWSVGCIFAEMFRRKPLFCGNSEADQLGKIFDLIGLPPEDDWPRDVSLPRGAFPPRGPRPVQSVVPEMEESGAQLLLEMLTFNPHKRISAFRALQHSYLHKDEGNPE
Sequence (P24385 whole entry partner): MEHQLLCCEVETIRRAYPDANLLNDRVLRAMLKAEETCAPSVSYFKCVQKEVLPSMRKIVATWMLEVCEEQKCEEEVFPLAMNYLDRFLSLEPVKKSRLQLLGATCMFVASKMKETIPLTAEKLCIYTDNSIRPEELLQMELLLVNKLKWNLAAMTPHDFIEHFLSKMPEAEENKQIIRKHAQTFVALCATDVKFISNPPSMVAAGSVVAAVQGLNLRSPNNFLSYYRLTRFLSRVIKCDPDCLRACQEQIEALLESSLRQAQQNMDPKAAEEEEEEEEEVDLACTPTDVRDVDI
Let's look at some compounds and their measured IC50.
Unit µM implied. Number only.

[in] Look up and report measured IC50 (CDK4/Cyclin D1 (Homo sapiens (Human), UniProt P11802)) for the following compound: CC(C)c1cc(C(C)(C)O)nc2c(F)cc(-c3nc(N[C@@H]4CCOC[C@H]4O)ncc3Cl)cc12
[out] 0.146

[in] Jot down IC50 (CDK4/Cyclin D1 (Homo sapiens (Human), UniProt P11802)) of CC(C)c1c(CNC2CCCC2)cnc2ccc(-c3nc(N[C@@H]4CCOC[C@H]4O)ncc3F)cc12 .
[out] 0.033

[in] Return reported IC50 for target or system CDK4/Cyclin D1 (Homo sapiens (Human), UniProt P11802), item CC(C)c1c(C(C)(C)O)cnc2c(F)cc(-c3nc(N[C@@H]4CCOC[C@H]4O)ncc3Cl)cc12 .
[out] 0.0021

[in] Name the value of IC50 reported for CC(C)c1c(C(C)(C)O)cnc2c(F)cc(-c3nc(N[C@@H]4CCOC[C@H]4O)ncc3F)cc12 when tested on CDK4/Cyclin D1 (Homo sapiens (Human), UniProt P11802).
[out] 0.0025

---

Recorded pIC50 by entry
target: CDK4/Cyclin D1 (Homo sapiens (Human), UniProt P11802); assay: CDK4/Cyclin D1 kinase TR-FRET inhibition assay; type: biochemical; details: 1 mM ATP, Rb (Ser780)-biotin substrate, read-out: CDK4D1 IC50
Friendly reminder that pIC50 comes from taking -log10 of the concentration in mol/L.

CC(C)c1c(CN2CCC[C@H](C#N)C2)cnc2ccc(-c3nc(N[C@@H]4CCOC[C@H]4O)ncc3F)cc12; 8.06
Cc1cc(C(C)C)c2cc(-c3nc(N[C@@H]4CCOC[C@H]4O)ncc3F)ccc2n1; 7.11
CC(C)c1c(CN[C@@H]2CCCOC2)cnc2c(F)cc(-c3nc(N[C@@H]4CCOC[C@H]4O)ncc3F)cc12; 7.92

# evaluate next
[in] Read the entry CC(C)c1c(CNC2CC(F)(F)C2)cnc2c(F)cc(-c3nc(N[C@@H]4CCOC[C@H]4O)ncc3F)cc12 and write its reported pIC50.
[out] 8.00

---

target: CDK6/Cyclin D3 (Homo sapiens (Human), UniProt Q00534); assay: CDK6/Cyclin D3 kinase TR-FRET inhibition assay; conditions: 1 mM ATP, Rb (Ser780)-biotin substrate, read-out: CDK6D3 IC50
Sequence (Q00534 whole entry): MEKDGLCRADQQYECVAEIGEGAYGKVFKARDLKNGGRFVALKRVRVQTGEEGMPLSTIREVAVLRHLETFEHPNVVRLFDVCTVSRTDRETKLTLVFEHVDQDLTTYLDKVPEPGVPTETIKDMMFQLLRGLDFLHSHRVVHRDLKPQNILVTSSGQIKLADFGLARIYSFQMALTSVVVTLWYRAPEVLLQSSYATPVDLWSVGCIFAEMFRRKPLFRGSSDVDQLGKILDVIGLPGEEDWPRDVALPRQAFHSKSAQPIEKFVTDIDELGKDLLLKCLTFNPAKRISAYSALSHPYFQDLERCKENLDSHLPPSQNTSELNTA
Sequence (P30281 whole entry partner): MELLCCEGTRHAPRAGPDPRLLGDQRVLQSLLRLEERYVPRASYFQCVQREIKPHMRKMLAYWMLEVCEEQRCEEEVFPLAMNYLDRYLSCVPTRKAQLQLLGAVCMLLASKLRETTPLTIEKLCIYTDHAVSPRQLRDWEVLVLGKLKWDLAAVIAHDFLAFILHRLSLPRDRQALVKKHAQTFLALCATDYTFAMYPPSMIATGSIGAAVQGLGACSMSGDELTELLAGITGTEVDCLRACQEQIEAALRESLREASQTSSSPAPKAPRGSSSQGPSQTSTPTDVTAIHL
Hi! Could you tag entries with IC50 below 1000 nM as criterion met, and those at or above as criterion not met? Much appreciated.

[in] Quick check: IC50 of CC(C)c1c(CNC2CCC2)cnc2ccc(-c3nc(N[C@@H]4CCOC[C@H]4O)ncc3F)cc12 under 1000 nM?
[out] criterion not met

[in] Strictly below 1000 nM in IC50? CC(C)c1c(CN[C@@H]2CCCOC2)cnc2ccc(-c3nc(N[C@@H]4CCOC[C@H]4O)ncc3F)cc12
[out] criterion met

[in] Is the reported IC50 for CC(C)c1c(C(C)(C)O)cnc2c(F)cc(-c3nc(N[C@@H]4CCOC[C@H]4O)ncc3F)cc12 strictly below 1000 nM?
[out] criterion met

[in] Below 1000 nM on IC50? Entry CC(C)c1c([C@@H](C)N)cnc2ccc(-c3nc(N[C@@H]4CCOC[C@H]4O)ncc3F)cc12
[out] criterion met

[in] I'd appreciate it if you could check whether CC(C)c1c(CNc2ccccn2)cnc2ccc(-c3nc(N[C@@H]4CCOC[C@H]4O)ncc3F)cc12 has IC50 smaller than 1000 nM.
[out] criterion not met

[in] State whether 1000 nM exceeds IC50 recorded for CC(C)c1c(CN2CCC[C@H](O)C2)cnc2ccc(-c3nc(N[C@@H]4CCOC[C@H]4O)ncc3F)cc12 .
[out] criterion met

---

target: CDK6/Cyclin D3 (Homo sapiens (Human), UniProt Q00534); assay: CDK6/Cyclin D3 kinase TR-FRET inhibition assay; conditions: 1 mM ATP, Rb (Ser780)-biotin substrate, read-out: CDK6D3 IC50
Below, each entry is listed alongside its reported IC50.
Could you give me the number in nM? Just the number is fine.

CC(C)c1c(CN[C@@H]2CCOC2)cnc2ccc(-c3nc(N[C@@H]4CCOC[C@H]4O)ncc3F)cc12 [Example 40]; 759
CC(C)c1c(CN2CCC[C@H](C#N)C2)cnc2ccc(-c3nc(N[C@@H]4CCOC[C@H]4O)ncc3F)cc12; 426
CC(C)c1c(CN2[C@H](C)COC[C@H]2C)cnc2ccc(-c3nc(N[C@@H]4CCOC[C@H]4O)ncc3F)cc12; 355
CC(C)c1c(CN2C[C@@H](O)[C@H](F)C2)cnc2ccc(-c3nc(N[C@@H]4CCOC[C@H]4O)ncc3F)cc12; 361
CC(C)c1c(CNC2CCOC2)cnc2ccc(-c3nc(N[C@@H]4CCOC[C@H]4O)ncc3F)cc12 (stereo partly drawn); 495
CC(C)c1c(CNC[C@H]2CCOC2)cnc2ccc(-c3nc(N[C@@H]4CCOC[C@H]4O)ncc3F)cc12; 828

Now, please, on to the next compound.
[in] For the compound CC(C)c1c(CN2CC[C@@H](F)C2)cnc2ccc(-c3nc(N[C@@H]4CCOC[C@H]4O)ncc3F)cc12 , give its measured IC50 value.
[out] 361

---

molecular target: CDK4/Cyclin D1 (Homo sapiens (Human), UniProt P11802); assay: CDK4/Cyclin D1 kinase TR-FRET inhibition assay; settings: 1 mM ATP, Rb (Ser780)-biotin substrate, read-out: CDK4D1 IC50
readoutLabel: pIC50
When answering, recall that pIC50 equals minus log10 of the concentration in mol/L, and write that number alone.

Worked set:
Cc1nc2ccc(-c3nc(N[C@@H]4CCOC[C@H]4O)ncc3F)cc2c(C(C)C)c1C; 7.36
CC(C)c1c([C@H](C)N)cnc2ccc(-c3nc(N[C@@H]4CCOC[C@H]4O)ncc3F)cc12; 7.47
Cc1cc(C(C)C)c2cc(-c3nc(N[C@@H]4CCOC[C@H]4O)ncc3Cl)ccc2n1; 6.97
CC(C)c1c(CNC[C@@H]2CCCO2)cnc2ccc(-c3nc(N[C@@H]4CCOC[C@H]4O)ncc3F)cc12; 7.57
CC(C)c1c(CN[C@@H]2CCOC2)cnc2ccc(-c3nc(N[C@@H]4CCOC[C@H]4O)ncc3F)cc12 [Example 35]; 7.80

[in] Hello, please tell me recorded pIC50 for this one: CC(C)c1c(CN[C@@H]2CCOC2)cnc2ccc(-c3nc(N[C@@H]4CCOC[C@H]4O)ncc3F)cc12 [Example 40]
[out] 7.48

[in] Identify pIC50 associated with the molecule CC(C)c1c(C(C)(C)O)cnc2cc(F)c(-c3nc(N[C@@H]4CCOC[C@H]4O)ncc3F)cc12
[out] 7.96

[in] Please look at this molecule and report its pIC50: CC(C)c1c(CO)cnc2c(F)cc(-c3nc(N[C@@H]4CCOC[C@H]4O)ncc3F)cc12
[out] 8.38

[in] Please supply the value of reported pIC50 for the item CC(C)c1ccnc2ccc(-c3nc(N[C@@H]4CCOC[C@H]4O)ncc3Cl)cc12
[out] 7.42

[in] Return the recorded pIC50 value; entry: CC(C)c1nc(C(C)(C)O)nc2c(F)cc(-c3nc(N[C@@H]4CCOC[C@H]4O)ncc3Cl)cc12
[out] 5.75

[in] State its pIC50: Cc1c(-c2nc(N[C@@H]3CCOC[C@H]3O)ncc2F)ccc2ncc(CO)c(C(C)C)c12
[out] 7.63

[in] Look up pIC50 of CC(C)c1c(C(C)(C)O)cnc2cc(Cl)c(-c3nc(N[C@@H]4CCOC[C@H]4O)ncc3F)cc12 and report it.
[out] 7.51

[in] Provide pIC50 value for the following molecule: CC(C)c1c(CNc2cnn(C)c2)cnc2ccc(-c3nc(N[C@@H]4CCOC[C@H]4O)ncc3F)cc12
[out] 7.39

[in] Please supply the value of reported pIC50 for the item CC(C)c1c(CN2C3CCCC2CC(O)C3)cnc2ccc(-c3nc(N[C@@H]4CCOC[C@H]4O)ncc3F)cc12 (stereo partly drawn)
[out] 7.82

[in] Using the record for COCc1cnc2ccc(-c3nc(N[C@@H]4CCOC[C@H]4O)ncc3F)cc2c1C(C)C , state its measured pIC50.
[out] 7.60

---

biological target: CDK4/Cyclin D1 (Homo sapiens (Human), UniProt P11802); experiment: CDK4/Cyclin D1 kinase TR-FRET inhibition assay; details: 1 mM ATP, Rb (Ser780)-biotin substrate, read-out: CDK4D1 IC50
pIC50: −log10 of the molar value.
If the reported pIC50 equals or exceeds 8, assign fulfilled. If not, assign not fulfilled.

CC(C)c1c(C(C)(C)O)cnc2ccc(-c3nc(N[C@@H]4CCOC[C@H]4O)ncc3F)cc12 [Example 2]; fulfilled
CC(C)c1c(CO)cnc2ccc(-c3nc(N[C@@H]4CCOC[C@H]4O)ncc3F)cc12 [Example 3]; fulfilled
CC(C)c1c(CN[C@H]2CCOC2)cnc2ccc(-c3nc(N[C@@H]4CCOC[C@H]4O)ncc3F)cc12 [Example 39]; not fulfilled
Cc1nc2ccc(-c3nc(N[C@@H]4CCOC[C@H]4O)ncc3F)cc2c(C(C)C)c1CO [Example 15]; not fulfilled
CC(C)c1c(CN)cnc2ccc(-c3nc(N[C@@H]4CCOC[C@H]4O)ncc3F)cc12 [Example 38]; fulfilled
CC(C)c1c(CNC2CCCCC2)cnc2ccc(-c3nc(N[C@@H]4CCOC[C@H]4O)ncc3F)cc12 [Example 28]; not fulfilled
CC(C)c1c(CN(C)C)cnc2ccc(-c3nc(N[C@@H]4CCOC[C@H]4O)ncc3F)cc12 [Example 11]; not fulfilled
CC(C)c1c(CN2CC[C@@H](F)C2)cnc2ccc(-c3nc(N[C@@H]4CCOC[C@H]4O)ncc3F)cc12 [Example 23]; not fulfilled
CC(C)c1c(CNc2ncccn2)cnc2ccc(-c3nc(N[C@@H]4CCOC[C@H]4O)ncc3F)cc12 [Example 45]; not fulfilled
CC(C)c1c([C@@H](C)N)cnc2ccc(-c3nc(N[C@@H]4CCOC[C@H]4O)ncc3F)cc12 [Example 56]; fulfilled

Moving on to the next compound.
[in] Could you verify whether the entry CC(C)c1c([C@@H](C)N2CC[C@@H](F)C2)cnc2ccc(-c3nc(N[C@@H]4CCOC[C@H]4O)ncc3F)cc12 [Example 48] shows pIC50 of no less than 8?
[out] not fulfilled
